Recorded pIC50, one value per entry.
# Tested System: Tyk2/JAK2 (heterodimeric complex) (Homo sapiens (Human), UniProt P29597)
# Sequence (P29597 whole entry, other chains not shown): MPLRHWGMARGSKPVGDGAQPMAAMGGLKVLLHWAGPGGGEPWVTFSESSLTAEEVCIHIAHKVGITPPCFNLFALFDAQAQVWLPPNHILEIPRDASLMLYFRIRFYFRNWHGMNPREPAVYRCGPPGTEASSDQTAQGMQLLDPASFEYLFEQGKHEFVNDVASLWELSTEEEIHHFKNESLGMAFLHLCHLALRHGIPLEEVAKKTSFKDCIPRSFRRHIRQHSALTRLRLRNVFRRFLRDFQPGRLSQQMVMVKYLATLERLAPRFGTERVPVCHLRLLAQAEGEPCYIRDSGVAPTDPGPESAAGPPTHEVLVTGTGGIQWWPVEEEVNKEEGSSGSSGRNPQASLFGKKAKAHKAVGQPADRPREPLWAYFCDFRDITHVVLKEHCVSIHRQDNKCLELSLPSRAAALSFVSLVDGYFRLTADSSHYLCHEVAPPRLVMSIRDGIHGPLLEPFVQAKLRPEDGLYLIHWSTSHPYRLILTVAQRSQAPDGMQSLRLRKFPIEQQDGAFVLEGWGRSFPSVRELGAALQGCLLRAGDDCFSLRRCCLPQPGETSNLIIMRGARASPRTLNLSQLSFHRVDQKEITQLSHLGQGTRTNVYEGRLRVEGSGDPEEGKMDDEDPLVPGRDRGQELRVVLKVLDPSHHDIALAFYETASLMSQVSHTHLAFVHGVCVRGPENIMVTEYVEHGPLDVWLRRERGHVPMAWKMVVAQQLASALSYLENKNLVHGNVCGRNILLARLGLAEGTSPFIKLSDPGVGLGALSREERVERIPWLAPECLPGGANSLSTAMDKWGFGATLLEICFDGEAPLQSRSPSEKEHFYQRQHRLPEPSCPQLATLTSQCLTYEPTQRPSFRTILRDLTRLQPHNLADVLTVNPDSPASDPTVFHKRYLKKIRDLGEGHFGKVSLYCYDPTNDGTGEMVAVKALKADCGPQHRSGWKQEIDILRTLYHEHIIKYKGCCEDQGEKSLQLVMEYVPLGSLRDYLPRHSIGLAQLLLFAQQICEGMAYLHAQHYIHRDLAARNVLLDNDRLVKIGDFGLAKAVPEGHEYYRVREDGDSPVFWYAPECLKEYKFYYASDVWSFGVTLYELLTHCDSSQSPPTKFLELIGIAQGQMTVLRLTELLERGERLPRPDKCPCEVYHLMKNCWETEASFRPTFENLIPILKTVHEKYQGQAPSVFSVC
# Protocol Description: IL-12 Induced pSTAT4 in Human PBMC
# Format: cell-based
# Measurement Context: 1.7 ng/mL IL-12
pIC50: −log10 of the molar value.

[[record]]
compound = "CNc1cc(Nc2cccc3ocnc23)nc2c(C(=O)N[C@@H]3CC[C@H]3O)cnn12 [I-857]"
parameter_measured = "pIC50"
experimental_value = "6.30 to 7.00"


Ask: // returns reported pIC50 for input CNc1cc(-c2cn(C(C)C)c3ncccc23)nc2c(C(=O)NC3CCC3)cnn12 [I-224]
Result: > 7.00

Ask: // returns reported pIC50 for input CNc1cc(Nc2cccn(C3CCCCC3)c2=O)nc2c(C(=O)N[C@@H]3CC[C@H]3O)cnn12 [I-1002]
Result: > 7.00

Ask: // returns reported pIC50 for input CNc1cc(Nc2cccn([C@H]3CC[C@H](OC)CC3)c2=O)nc2c(C(=O)NCC3(CO)CC3)cnn12 [I-545]
Result: 6.30 to 7.00

Ask: // returns reported pIC50 for input CNc1cc(Nc2cccn(-c3nn(C)cc3C)c2=O)nc2c(C(=O)NC3CC3)cnn12 [I-404]
Result: < 6.00

----------
# Tested System: JAK2/JAK2 homdimeric complex (Homo sapiens (Human))
# Sequence (O60674 whole entry): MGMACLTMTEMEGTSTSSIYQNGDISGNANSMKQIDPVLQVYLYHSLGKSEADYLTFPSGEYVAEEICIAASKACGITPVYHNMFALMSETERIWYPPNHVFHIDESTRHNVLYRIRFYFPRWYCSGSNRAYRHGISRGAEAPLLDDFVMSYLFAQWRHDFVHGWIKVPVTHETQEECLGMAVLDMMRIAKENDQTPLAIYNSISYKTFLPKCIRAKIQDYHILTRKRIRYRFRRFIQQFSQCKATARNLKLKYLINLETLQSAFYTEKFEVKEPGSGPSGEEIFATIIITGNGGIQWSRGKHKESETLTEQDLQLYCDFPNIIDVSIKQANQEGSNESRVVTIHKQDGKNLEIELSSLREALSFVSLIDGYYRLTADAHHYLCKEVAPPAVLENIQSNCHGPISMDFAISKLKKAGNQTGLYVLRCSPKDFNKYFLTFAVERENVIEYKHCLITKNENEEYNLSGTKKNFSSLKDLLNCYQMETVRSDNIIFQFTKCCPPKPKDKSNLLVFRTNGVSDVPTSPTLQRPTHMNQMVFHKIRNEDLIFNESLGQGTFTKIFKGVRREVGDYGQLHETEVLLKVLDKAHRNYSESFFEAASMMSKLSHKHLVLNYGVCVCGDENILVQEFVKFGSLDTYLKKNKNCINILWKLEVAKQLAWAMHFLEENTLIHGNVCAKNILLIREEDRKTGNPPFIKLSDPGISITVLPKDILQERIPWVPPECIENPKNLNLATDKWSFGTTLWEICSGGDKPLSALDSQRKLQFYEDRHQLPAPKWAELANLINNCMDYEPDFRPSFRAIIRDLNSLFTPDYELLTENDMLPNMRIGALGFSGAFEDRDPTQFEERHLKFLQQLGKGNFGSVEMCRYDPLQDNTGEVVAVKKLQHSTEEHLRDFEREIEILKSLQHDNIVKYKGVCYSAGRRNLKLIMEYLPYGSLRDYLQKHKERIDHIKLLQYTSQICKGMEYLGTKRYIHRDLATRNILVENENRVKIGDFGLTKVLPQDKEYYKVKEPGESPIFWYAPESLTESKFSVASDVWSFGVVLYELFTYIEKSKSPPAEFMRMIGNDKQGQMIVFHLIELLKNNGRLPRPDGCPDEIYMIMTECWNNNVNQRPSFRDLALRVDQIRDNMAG
# Sequence (P32927 17-897 partner): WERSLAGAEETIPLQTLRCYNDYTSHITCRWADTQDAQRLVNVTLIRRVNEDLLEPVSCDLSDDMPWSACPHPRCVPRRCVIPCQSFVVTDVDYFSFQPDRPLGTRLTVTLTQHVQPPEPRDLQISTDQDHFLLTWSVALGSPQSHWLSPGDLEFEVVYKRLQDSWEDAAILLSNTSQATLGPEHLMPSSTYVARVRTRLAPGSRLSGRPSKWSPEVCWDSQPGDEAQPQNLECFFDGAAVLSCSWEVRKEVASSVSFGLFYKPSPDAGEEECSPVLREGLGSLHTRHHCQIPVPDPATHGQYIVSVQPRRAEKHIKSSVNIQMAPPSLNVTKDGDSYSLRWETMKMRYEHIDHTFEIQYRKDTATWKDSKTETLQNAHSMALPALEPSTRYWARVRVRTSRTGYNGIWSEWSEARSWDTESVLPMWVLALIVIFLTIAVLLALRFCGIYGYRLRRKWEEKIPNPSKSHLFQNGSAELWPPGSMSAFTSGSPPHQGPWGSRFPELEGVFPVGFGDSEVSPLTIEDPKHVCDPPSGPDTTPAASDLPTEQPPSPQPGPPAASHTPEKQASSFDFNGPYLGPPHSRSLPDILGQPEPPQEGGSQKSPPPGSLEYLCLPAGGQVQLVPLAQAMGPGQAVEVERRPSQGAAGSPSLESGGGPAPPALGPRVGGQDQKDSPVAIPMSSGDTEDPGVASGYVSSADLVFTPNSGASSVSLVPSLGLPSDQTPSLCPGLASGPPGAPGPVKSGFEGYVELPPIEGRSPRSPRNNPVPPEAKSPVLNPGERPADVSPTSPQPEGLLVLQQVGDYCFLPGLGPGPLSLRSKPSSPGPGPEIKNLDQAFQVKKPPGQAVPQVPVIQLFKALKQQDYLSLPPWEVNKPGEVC
# Protocol Description: GM-CSF Induced pSTAT5 in Human PBMC
# Measurement Context: GM-CSF 5 ng/mL for 20 minutes, pSTAT5 by MSD, read-out: PBMC_GMCSF_pSTAT5 IC50
pIC50: −log10 of the molar value.
Parameter Measured: pIC50

[[record]]
compound = "CNc1cc(Nc2cccn([C@H]3[C@@H]4COC[C@@H]43)c2=O)nc2c(C(=O)N[C@@H]3C[C@@H]3F)cnn12 [I-811]"
experimental_value = "< 4.30"


Ask: // returns reported pIC50 for input CNc1cc(Nc2cccc([C@@H]3CCCOC3)n2)nc2c(C(=O)N[C@@H]3CC[C@H]3O)cnn12 [I-665]
Result: < 5.60

Ask: // returns reported pIC50 for input CNc1cc(Nc2cc(Cl)cn([C@H]3CCCOC3)c2=O)nc2c(C(=O)NC3CC3)cnn12 [I-782]
Result: < 4.30

Ask: // returns reported pIC50 for input CNc1cc(Nc2cccnc2OC2CCC2)nc2c(C(=O)N[C@H]3C[C@H]3F)cnn12 [I-170]
Result: < 4.30

Ask: // returns reported pIC50 for input CNc1cc(-c2cn(CCN3CCN(C)CC3)c3ncccc23)nc2c(C(=O)N[C@H]3CC[C@@H]3OC)cnn12 [I-952]
Result: < 5.60

Ask: // returns reported pIC50 for input CNc1cc(Nc2cccn(-c3ncc(C)s3)c2=O)nc2c(C(=O)N[C@@H]3CC[C@@H]3O)cnn12 [I-677]
Result: < 5.60

----------
Recorded Kd, one value per entry.
# Tested System: human TYK2 (JH2domain-pseudokinase) (Homo sapiens (Human), UniProt P29597)
# Sequence (P29597 556-888): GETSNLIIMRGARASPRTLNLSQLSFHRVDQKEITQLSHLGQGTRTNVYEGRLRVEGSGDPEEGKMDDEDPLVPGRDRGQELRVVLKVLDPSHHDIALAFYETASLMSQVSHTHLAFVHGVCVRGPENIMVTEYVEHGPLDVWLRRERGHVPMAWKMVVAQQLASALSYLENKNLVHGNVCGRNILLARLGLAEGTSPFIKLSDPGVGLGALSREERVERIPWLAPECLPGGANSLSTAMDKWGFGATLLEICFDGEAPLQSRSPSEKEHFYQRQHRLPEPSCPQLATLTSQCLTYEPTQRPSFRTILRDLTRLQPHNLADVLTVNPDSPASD
# Protocol Description: TYK2 JH2 Domain Binding Assay (KINOMEscan)

Field: example entries. Status: answers known.
[[record]]
compound = "CNc1cc(Nc2cccn(-c3cc(C)nn3C)c2=O)nc2c(C(=O)N[C@H]3C[C@H]3F)cnn12"
parameter_measured = "Kd"
experimental_value = "0.2 to 1 nM"

[[record]]
compound = "CNc1cc(Nc2cccn(-c3ccc(C(=O)N4CCC4)cn3)c2=O)nc2c(C(=O)N[C@H]3C[C@H]3F)cnn12"
parameter_measured = "Kd"
experimental_value = "< 0.2 nM"


Ask: // returns reported Kd for input CNc1cc(Nc2cccnc2OC2CC2)nc2c(C(=O)N[C@@H]3CC[C@H]3O)cnn12 [I-398]
Result: 0.2 to 1 nM

----------
# Tested System: human TYK2 (JH2domain-pseudokinase) (Homo sapiens (Human), UniProt P29597)
# Protocol Description: TYK2 JH2 Domain Binding Assay (KINOMEscan)
# Experimental: Binding constants for compounds of the present invention against the JH2 domain were determined by the following protocol for a KINOMEscan® assay (DiscoveRx). […] The TYK2 (JH2domain-pseudokinase) fusion protein was labeled with a chimeric double-stranded DNA tag containing the NFkB binding site (5′-[…]-3′) fused to an amplicon for qPCR readout, which was added directly to the expression extract (the final concentration of DNA-tag in the binding reaction is 0.1 nM). […]
Parameter Measured: Kd

[[record]]
molecule = "CNc1cc(Nc2cccn(-c3ccnn3C)c2=O)nc2c(C(=O)N[C@H]3C[C@H]3F)cnn12 [I-335]"
parameter_measured = "Kd"
experimental_value = "< 0.2 nM"


Ask: Lab note: need Kd for CNc1cc(Nc2cccn([C@H]3C[C@@H]3F)c2=O)nc2c(C(=O)N[C@H]3CC[C@@H]3O)cnn12 [I-1278] on human TYK2 (JH2domain-pseudokinase) (Homo sapiens (Human), UniProt P29597), anyone have it?
Result: 0.2 to 1 nM

Ask: Lab note: need Kd for CNc1cc(Nc2cccn([C@H]3CC[C@](C)(OC)CC3)c2=O)nc2c(C(=O)N[C@H]3CC[C@@H]3O)cnn12 [I-1108] on human TYK2 (JH2domain-pseudokinase) (Homo sapiens (Human), UniProt P29597), anyone have it?
Result: < 0.2 nM

Ask: Lab note: need Kd for CNc1cc(Nc2cc(Cl)cn(C3CCCOC3)c2=O)nc2c(C(=O)NCC(C)(C)CO)cnn12 (centres unmarked) [I-694] on human TYK2 (JH2domain-pseudokinase) (Homo sapiens (Human), UniProt P29597), anyone have it?
Result: < 0.2 nM

Ask: Lab note: need Kd for CNc1cc(Nc2cc(Cl)cn(C3CCOCC3)c2=O)nc2c(C(=O)N[C@H]3CC[C@H]3O)cnn12 [I-1068] on human TYK2 (JH2domain-pseudokinase) (Homo sapiens (Human), UniProt P29597), anyone have it?
Result: < 0.2 nM

----------
Recorded Kd, one value per entry.
# Tested System: human TYK2 (JH2domain-pseudokinase) (Homo sapiens (Human))
# Protocol Description: TYK2 JH2 Domain Binding Assay (KINOMEscan)

Field: example entries. Status: answers known.
[[record]]
compound = "CNc1cc(-c2cn([C@H]3CCC[C@@H]3OC)c3ncccc23)nc2c(C(=O)NC3CCC3O)cnn12 (mixture of isomers)"
tested_system = "human TYK2 (JH2domain-pseudokinase) (Homo sapiens (Human))"
experimental_value = "1 to 10 nM"

[[record]]
compound = "CNc1cc(Nc2cccn([C@H]3CCC[C@@H](C#N)C3)c2=O)nc2c(C(=O)NC3CC3)cnn12 [I-1245]"
tested_system = "human TYK2 (JH2domain-pseudokinase) (Homo sapiens (Human))"
experimental_value = "0.2 to 1 nM"

[[record]]
compound = "CNc1cc(Nc2cccn(C[C@@H]3CCCCO3)c2=O)nc2c(C(=O)NC3CC3)cnn12"
tested_system = "human TYK2 (JH2domain-pseudokinase) (Homo sapiens (Human))"
experimental_value = "< 0.2 nM"

[[record]]
compound = "CNc1cc(Nc2cccnc2OC)nc2c(C(=O)NC3CC(F)(F)C3)cnn12"
tested_system = "human TYK2 (JH2domain-pseudokinase) (Homo sapiens (Human))"
experimental_value = "< 0.2 nM"


Next:
Ask: Lab note: need Kd for "[2H]C([2H])([2H])Oc1ncccc1Nc1cc(NC)n2ncc(C(=O)N[C@@H]3CC[C@@H](O)C3)c2n1" on human TYK2 (JH2domain-pseudokinase) (Homo sapiens (Human)), anyone have it?
Result: < 0.2 nM

----------
# Tested System: Tyk2/JAK2 (heterodimeric complex) (Homo sapiens (Human))
# Protocol Description: IL-12 Induced pSTAT4 in Human PBMC
# Type: cell-based
# Measurement Context: 1.7 ng/mL IL-12
pIC50: −log10 of the molar value.
Recorded pIC50, one value per entry.

Field: example entries. Status: answers known.
[[record]]
compound = "CNc1cc(Nc2cccn([C@H]3CCC[C@H]3O)c2=O)nc2c(C(=O)N[C@H]3CC[C@@H]3OC)cnn12 [I-1373]"
tested_system = "Tyk2/JAK2 (heterodimeric complex) (Homo sapiens (Human))"
parameter_measured = "pIC50"
experimental_value = "> 7.00"

[[record]]
compound = "CNc1cc(Nc2cccn([C@@H]3CCCOC3)c2=O)nc2c(C(=O)NC3CC3)cnn12 [I-351]"
tested_system = "Tyk2/JAK2 (heterodimeric complex) (Homo sapiens (Human))"
parameter_measured = "pIC50"
experimental_value = "> 7.00"

[[record]]
compound = "CNc1cc(Nc2cc(F)cnc2OC2CC2)nc2c(C(=O)N[C@H]3C[C@H]3F)cnn12 [I-275]"
tested_system = "Tyk2/JAK2 (heterodimeric complex) (Homo sapiens (Human))"
parameter_measured = "pIC50"
experimental_value = "> 7.00"


Ask: // returns reported pIC50 for input CNc1cc(Nc2cc(F)cn(-c3ccccn3)c2=O)nc2c(C(=O)N[C@H]3C[C@H]3F)cnn12 [I-194]
Result: > 7.00

Ask: // returns reported pIC50 for input CNc1cc(-c2cn(C(C)C)c3ncccc23)nc2c(C(=O)N[C@@H]3COC[C@@H]3O)cnn12 [I-842]
Result: > 7.00

Ask: // returns reported pIC50 for input CNc1cc(Nc2cc(Cl)cn(-c3ccn(C4CC4)n3)c2=O)nc2c(C(=O)NC3CC3)cnn12 [I-331]
Result: > 7.00

Ask: // returns reported pIC50 for input CNc1cc(Nc2cccn(-c3ncccc3F)c2=O)nc2c(C(=O)O)cnn12 [I-893]
Result: < 6.00

Ask: // returns reported pIC50 for input CNc1cc(Nc2cccn([C@@H]3CC[C@H]3O)c2=O)nc2c(C(=O)N[C@@H]3CC[C@H]3OC)cnn12 [I-1309]
Result: > 7.00

Ask: // returns reported pIC50 for input CNc1cc(-c2c[nH]c3c(C)cc(C)cc23)nc2c(C(N)=O)cnn12 [I-36]
Result: > 7.00

Ask: // returns reported pIC50 for input CNc1cc(Nc2cccn([C@H]3CC[C@H](OC)CC3)c2=O)nc2c(C(=O)NC[C@H](C)CO)cnn12 [I-829]
Result: > 7.00

Ask: // returns reported pIC50 for input CNc1cc(Nc2cccc(-c3cnn(C)c3)c2Cl)nc2c(C(N)=O)cnn12 [I-17]
Result: > 7.00

Ask: // returns reported pIC50 for input CCn1cc(Cl)cc(Nc2cc(NC)n3ncc(C(N)=O)c3n2)c1=O [I-35]
Result: > 7.00

Where do these numbers come from? They come from patent US10508120B2.
